Biological target: aggregated tau (mixed 3R/4R-tau) in AD brain tissue homogenates (Homo sapiens)
Sequence (P10636 623-695 limits assumed): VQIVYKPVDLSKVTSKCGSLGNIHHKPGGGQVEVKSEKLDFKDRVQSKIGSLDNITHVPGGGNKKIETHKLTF
Assay: In vitro competition (Ki) assay versus [^3H]3, AD brain tissue homogenate
Assay type: binding
Settings: radioligand [^3H]3 ∼1 nM
VALUE_KIND: pKi
// pKi is dimensionless: -log10 of concentration (M)

Considering O[C@H]1CCN(c2ccc(-c3cc4ccc(F)cc4[nH]3)cn2)C1 [Compound 9, reference compound] , its pKi with aggregated tau (mixed 3R/4R-tau) in AD brain tissue homogenates (Homo sapiens) was recorded as 7.48

====

Molecular target: cathepsin B (h) (Homo sapiens)
VALUE_KIND: pIC50
// pIC50 is dimensionless: -log10 of concentration (M)

Considering "CC(=O)N[C@@H](CC(C)C)C(=O)N[C@@H](CC(C)C)C(=O)N[C@H](C=O)CCCNC(=N)N" , its pIC50 with cathepsin B (h) (Homo sapiens) was recorded as 7.55
